Numbers sourced from the supplement of paper PMC10567573.

Measured protein stability index, listed per entry for reference.
B1: ANKRD17 (parent)
chain: EVLRRLTSSVSCALDEAAAALTRM

Variants of: B1
Assay: protein stability index of a GFP-peptide fusion (GPS, HEK-293T) (PSI 1-6); higher = more stable;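 further: lentivirally expressed fusions sorted by FACS into six bins by GFP to DsRed ratio, PSI derived from sequencing read proportions per bin multiplied by bin number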
Conditions: c terminus: a fixed tail appended
observed property: protein stability index

residues	observed property	val
EKLRRLTSSVSCALDEAAAALTRM [V2K]	protein stability index	2.33
EVLRRLTSSVSCALDEAAAMLTRM [A20M]	protein stability index	2.28
EVLRRLTSSDSCALDEAAAALTRM [V10D]	protein stability index	3.61
EVLRRLTSSVTCALDEAAAALTRM [S11T]	protein stability index	2.42
EVLRRLTSSVSCALDEAAAALTSM [R23S]	protein stability index	1.93
EVLRRLTSSVSCALDEAAAALTRL [M24L]	protein stability index	2.81
EVLRRLTSSVSCTLDEAAAALTRM [A13T]	protein stability index	2.38
EVLRRLTSSVSQALDEAAAALTRM [C12Q]	protein stability index	2.41
EVLRRLTSSVSCALDDAAAALTRM [E16D]	protein stability index	1.72
EVLRRLTSSVSCALDEAAAALTRQ [M24Q]	protein stability index	2.2
EVLRNLTSSVSCALDEAAAALTRM [R5N]	protein stability index	2.35
